# Test system: HL-60
# test-protocol: 48-hour IC50 by MTS, HL-60 acute promyelocytic leukemia cells
# Assay type: cell-based, human
pIC50: −log10 of the molar value.

molecule	pIC50
O=C1N[C@H]2[C@@H]3NC(=O)c4ccc(Br)n4[C@@H]3C[C@@]2(O)N1 [(−)-4, (−)-agelastatin D]	6.27
CO[C@@]12C[C@@H]3[C@@H](NC(=O)c4ccc(Br)n43)[C@@H]1NC(=O)N2C [(−)-5, (−)-agelastatin E]	5.34
CN1C(=O)N[C@H]2[C@@H]3NC(=O)c4ccc(Br)n4[C@@H]3C[C@]21O [(−)-1, (−)-agelastatin A]	6.86

====

# Tested on: A549
# test-protocol: 48-hour IC50 by SRB, A549 non-small cell lung carcinoma cells
# Format: cell-based, human
# condition: Homo sapiens
# Protocol: Cells were grown in media supplemented with fetal bovine serum (FBS) and antibiotics (100 μg/mL penicillin and 100 U/mL streptomycin). […] Cells were incubated at 37° C. in a 5% CO2, 95% humidity atmosphere. Adherent cells (HeLa, A549, BT549, and IMR90) were added into 96-well plates (5,000 cells/well for HeLa cell line; 2,000 cells/well for A549, BT549, and IMR90 cell lines) in 100 μL media and were allowed to adhere for 2-3 hours. […]
assay-readout: IC50

compound	assay-readout	experimental-result
CO[C@H]1NC(=O)c2ccc(Br)n2[C@@H]1Cc1c[nH]c(=O)n1C [(+)-39, (+)-O-methyl-pre-agelastatin A]	IC50	> 10 µM

====

# System: BT549
# test-protocol: 48-hour IC50 by SRB, BT549 breast carcinoma cells
# Assay type: cell-based, human
# condition: Homo sapiens, BT-549
pIC50: −log10 of the molar value.
assay-readout: pIC50

molecule	assay-readout	experimental-result
CO[C@H]1NC(=O)c2ccc(Br)n2[C@@H]1Cc1c[nH]c(=O)n1C [(+)-39, (+)-O-methyl-pre-agelastatin A]	pIC50	< 5.00

====

# System: IMR90
# test-protocol: 48-hour IC50 by SRB, IMR90  lung fibroblasts
# Assay type: cell-based, human
# condition: IMR90 immortalized lung fibroblasts

molecule	IC50
O=C1N[C@H]2[C@@H]3NC(=O)c4ccc(Br)n4[C@@H]3C[C@@]2(O)N1 [(−)-4, (−)-agelastatin D]	2.75 µM
O=C1N[C@H]2[C@@H]3NC(=O)c4cc(Br)c(Br)n4[C@@H]3C[C@@]2(O)N1 [(−)-6, (−)-agelastatin F]	> 10 µM
CO[C@@]12C[C@@H]3[C@@H](NC(=O)c4ccc(Br)n43)[C@@H]1NC(=O)N2C [(−)-5, (−)-agelastatin E]	> 10 µM
COC1NC(=O)c2ccc(Br)n2C1Cc1c[nH]c(=O)[nH]1 (single isomer, unassigned; (+)) [(+)-53, (+)-O-methyl-pre-agelastatin D]	> 10 µM
CN1C(=O)N[C@H]2[C@@H]3NC(=O)c4ccc(Br)n4[C@@H]3C[C@]21O [(−)-1, (−)-agelastatin A]	1.11 µM
CN1C(=O)N[C@@]2(O)[C@@H]3NC(=O)c4ccc(Br)n4[C@@H]3C[C@@]12O [(−)-3, (−)-agelastatin C]	> 10 µM

====

# System: Jurkat
# test-protocol: 48-hour IC50 by MTS, Jurkat acute T-cell leukemia cells
# Format: cell-based, human
The following compounds are listed with their measured IC50 values.
assay-readout: IC50 (nM)

compound	assay-system	assay-readout	units	experimental-result
CN1C(=O)N[C@@]2(O)[C@@H]3NC(=O)c4ccc(Br)n4[C@@H]3C[C@@]12O [(−)-3, (−)-agelastatin C]	Jurkat	IC50	nM	5310
O=C1N[C@H]2[C@@H]3NC(=O)c4ccc(Br)n4[C@@H]3C[C@@]2(O)N1 [(−)-4, (−)-agelastatin D]	Jurkat	IC50	nM	210
CO[C@@]12C[C@@H]3[C@@H](NC(=O)c4ccc(Br)n43)[C@@H]1NC(=O)N2C [(−)-5, (−)-agelastatin E]	Jurkat	IC50	nM	1500
CN1C(=O)N[C@H]2[C@@H]3NC(=O)c4ccc(Br)n4[C@@H]3C[C@]21O [(−)-1, (−)-agelastatin A]	Jurkat	IC50	nM	74

====

# Test system: U-937
# test-protocol: 48-hour IC50 by MTS, U-937 lymphoma cells
# Type: cell-based, human
# IC50 per record follows
assay-readout: IC50

molecule	experimental-result
COC1NC(=O)c2ccc(Br)n2C1Cc1c[nH]c(=O)[nH]1 (single isomer, unassigned; (+)) [(+)-53, (+)-O-methyl-pre-agelastatin D]	> 10 µM
O=C1N[C@H]2[C@@H]3NC(=O)c4cc(Br)c(Br)n4[C@@H]3C[C@@]2(O)N1 [(−)-6, (−)-agelastatin F]	> 10 µM
CN1C(=O)N[C@@]2(O)[C@@H]3NC(=O)c4ccc(Br)n4[C@@H]3C[C@@]12O [(−)-3, (−)-agelastatin C]	> 10 µM
